Organism: Rattus norvegicus
test protocol: DrugMatrix - Regimen: Daily Repeat
Type: toxicity, organism-based, Sprague-Dawley
Set-up: regimen Daily Repeat, gender Male, age 6-8 weeks
condition info: in vivo, po, 1500 mg/kg, 120 h, tissue Plasma, route oral GAVAGE, dose level High, time 5 day, vehicle .5 % CMC
Entries and their measured CREATINE PHOSPHOKINASE follow.

molecule	CREATINE PHOSPHOKINASE, u/L
CCOC(=O)[C@H](CCc1ccccc1)N[C@@H](C)C(=O)N1[C@H](C(=O)O)C[C@@H]2CCC[C@@H]21	314.67
COC(=O)c1ccc(O)cc1	311.33
NS(=O)(=O)c1cc2c(cc1Cl)NCNS2(=O)=O [HYDROCHLOROTHIAZIDE]	157.67
O=C1CCc2cc(OCCCCc3nnnn3C3CCCCC3)ccc2N1	130
